Test system: L1210 leukemia ip in BDF1 mice, survival T/C
Test name: NCI In Vivo Anticancer Drug Screen. Data for tumor model L1210 Leukemia (intraperitoneal) in B6D2F1 (BDF1) mice
Particulars: endpoint: mean survival time; dose: 100.0 mg/kg/injection; schedule: Q04DX003 (ip); vehicle: saline with Tween-80; higher = longer survival
Toxic doses and inconclusive results are not listed.
Value kind: T/C

Cc1ccc(NC(=O)C2C3C=CC(C3)C2C(=O)Nc2ccc(C)cc2)cc1 (configuration not stated) :: 96 % of control
Oc1ccc(C2N(c3ccccc3)CCN2c2ccccc2)cc1 :: 92 % of control
O=C(O)CSc1nc2ccccc2[nH]1 :: 100 % of control
COc1cc(C=O)ccc1OCc1ccccc1 :: 110 % of control
CCO/C=C/c1ccccc1 :: 93 % of control

Hi there! I need T/C for each item below, if you can.
1. O=C(O)CCCc1ccc(Br)cc1
2. NNC(=O)c1cc2c3ccccc3ncc2c2ccccc12

## Result
96 % of control
86 % of control
